Test system: nutsedge, yellow (yellow nutsedge, Cyperus esculentus)
Test: Test C pre-/postemergence: nutsedge, yellow
Format: in vivo
Settings: Postemergence, 62 g ai/ha; scale 0 to 100 (0 no effect, 100 complete control)
Description: […] Treated plants and controls were maintained in a greenhouse for 13 to 15 days, after which time all species were compared to controls and visually evaluated. […]
assayReadout: Plant response rating, Nutsedge, Yellow
Provide a numeric answer; units are not to be included.

Take a look at these entries with their results.
compound	testedSystem	measuredNumber
FC(F)Oc1nn(-c2ccc(C(F)(F)F)cc2)nc1Cc1ccnc(C(F)(F)F)c1 [Compound 26]	nutsedge, yellow (yellow nutsedge, Cyperus esculentus)	10
Cc1nn(-c2ccc(C(F)(F)F)cn2)nc1Oc1ccnc(C(F)(F)F)c1 [Compound 23]	nutsedge, yellow (yellow nutsedge, Cyperus esculentus)	10
Fc1ccc(-n2nc(Cc3ccnc(C(F)(F)F)c3)c(OC(F)F)n2)cc1 [Compound 25]	nutsedge, yellow (yellow nutsedge, Cyperus esculentus)	5
Cc1nn(-c2ccc(C(F)(F)F)cc2)nc1Oc1ccnc(C(F)(F)F)c1 [Compound 120]	nutsedge, yellow (yellow nutsedge, Cyperus esculentus)	0

Entry under test: CCc1nn(-c2ccc(F)c(F)c2)nc1Oc1ccnc(C(F)(F)F)c1 [Compound 171] . Its Plant response rating, Nutsedge, Yellow was 5

Entry under test: CCc1nn(-c2ccc(F)cc2)nc1Cc1ccnc(C(F)(F)F)c1 [Compound 154] . Its Plant response rating, Nutsedge, Yellow was 10

Entry under test: FC(F)(F)COc1nn(-c2ccc(C(F)(F)F)cc2)nc1Cc1ccnc(C(F)(F)F)c1 [Compound 14] . Its Plant response rating, Nutsedge, Yellow was 0

Entry under test: COc1nn(-c2cccc(F)c2)nc1Cc1ccnc(C(F)(F)F)c1 [Compound 139] . Its Plant response rating, Nutsedge, Yellow was 10

Entry under test: Cc1nn(-c2ccc(C(F)(F)F)cn2)nc1Cc1cccc(C(F)(F)F)c1 [Compound 106] . Its Plant response rating, Nutsedge, Yellow was 0

---

tested on: ryegrass, Italian (Italian ryegrass, Lolium multiflorum); experiment: Test C pre-/postemergence: ryegrass, Italian; format: in vivo; conditions: Postemergence, 250 g ai/ha; scale 0 to 100
assayReadout: Plant response rating, Ryegrass, Italian
Provide a numeric answer; units are not to be included.

Take a look at these entries with their results.
molecule	Plant response rating, Ryegrass, Italian
Cc1nn(-c2ccc(C(F)(F)F)cn2)nc1Oc1ccnc(C(F)(F)F)c1 [Compound 23]	15
FC(F)(F)c1ccc(-n2nc(Cl)c(Cc3ccnc(C(F)(F)F)c3)n2)cc1 [Compound 28]	30
CCc1nn(-c2ccc(F)cc2)nc1Cc1ccnc(C(F)(F)F)c1 [Compound 154]	35
FC(F)(F)COc1nn(-c2ccc(C(F)(F)F)cc2)nc1Cc1ccnc(C(F)(F)F)c1 [Compound 14]	40

Entry under test: CCOc1nn(-c2ccc(C(F)(F)F)cc2)nc1Cc1ccnc(C(F)(F)F)c1 [Compound 164] . Its Plant response rating, Ryegrass, Italian was 5

---

Measured Plant response rating, Corn accompanies every entry in the list below.
system: corn (Zea mays); experiment: Test C pre-/postemergence: corn; format: in vivo; settings: Postemergence, 62 g ai/ha; scale 0 to 100 (0 no effect, 100 complete control)

compound	Plant response rating, Corn
FC(F)Oc1nn(-c2ccc(C(F)(F)F)cc2)nc1Cc1ccnc(C(F)(F)F)c1 [Compound 26]	20
FC(F)(F)COc1nn(-c2ccc(C(F)(F)F)cc2)nc1Cc1ccnc(C(F)(F)F)c1 [Compound 14]	10
CCCc1nn(-c2ccc(F)cc2)nc1Oc1ccnc(C(F)(F)F)c1 [Compound 168]	15
FC(F)(F)c1ccc(-n2nc(Cl)c(Cc3ccnc(C(F)(F)F)c3)n2)cc1 [Compound 28]	20
Cc1nn(-c2ccc(C(F)(F)F)cn2)nc1Cc1cccc(C(F)(F)F)c1 [Compound 106]	15

Entry under test: Cc1nn(-c2ccnc(Cl)c2)nc1Cc1ccnc(C(F)(F)F)c1 [Compound 141] . Its Plant response rating, Corn was 45

Entry under test: FCc1nn(-c2ccc(F)cc2)nc1Oc1ccnc(C(F)(F)F)c1 [Compound 160] . Its Plant response rating, Corn was 20

---

Measured Plant response rating, Corn accompanies every entry in the list below.
system: corn (Zea mays); experiment: Test C pre-/postemergence: corn; format: in vivo; settings: Postemergence, 125 g ai/ha; scale 0 to 100, 0 no effect, 100 complete control
Provide a numeric answer; units are not to be included.

smilesStr	measuredNumber
FCc1nn(-c2ccc(F)cc2)nc1Oc1ccnc(C(F)(F)F)c1	25
CCCc1nn(-c2ccc(F)cc2)nc1Oc1ccnc(C(F)(F)F)c1	30

Form field, Plant response rating, Corn with corn (Zea mays), item FC(F)(F)c1ccc(-n2nc(Cl)c(Cc3ccnc(C(F)(F)F)c3)n2)cc1 : 25

Form field, Plant response rating, Corn with corn (Zea mays), item Cc1nn(-c2ccc(C(F)(F)F)cn2)nc1Cc1cccc(C(F)(F)F)c1 : 15

Form field, Plant response rating, Corn with corn (Zea mays), item CCc1nn(-c2ccc(C(F)(F)F)cc2)nc1Cc1ccnc(C(F)(F)F)c1 : 45

---

Measured Pigweed plant response rating accompanies every entry in the list below.
system: pigweed (Amaranthus retroflexus); experiment: Test A pre-/postemergence: pigweed; format: in vivo; details: Postemergence, 1000 g ai/ha; visual rating on 0 to 100 scale (0 no effect, 100 complete control), approximately ten days
Provide a numeric answer; units are not to be included.

compound	testedSystem	assayReadout	measuredNumber
Cc1nn(-c2ccc(F)cc2)nc1Cn1nc(C(F)(F)F)cc1C [Compound 97]	pigweed (Amaranthus retroflexus)	Pigweed plant response rating	60
FC(F)(F)c1ccc(-n2nc(Br)c(Cc3cccc(C(F)(F)F)c3)n2)cc1 [Compound 123]	pigweed (Amaranthus retroflexus)	Pigweed plant response rating	100

Entry under test: Cc1nn(-c2ccc(F)cc2)nc1Cn1ccc(C(F)(F)F)n1 [Compound 95] . Its Pigweed plant response rating was 100

Entry under test: CCc1nn(-c2ccc(C(F)(F)F)cc2)nc1Cn1cnc(C(F)(F)F)c1 [Compound 133] . Its Pigweed plant response rating was 100

Entry under test: Cc1nn(-c2ccc(C(F)(F)F)cc2)nc1Cn1ccc(C(F)(F)F)n1 [Compound 117] . Its Pigweed plant response rating was 100

---

tested on: wheat, winter (winter wheat, Triticum aestivum); experiment: Test D pre-/postemergence: wheat, winter; type: in vivo; conditions: Postemergence; 16 g ai/ha; scale 0 to 100
assayReadout: Plant response rating, Wheat, Winter

compound	result
CCc1nn(-c2ccc(C(F)(F)F)cc2)nc1Cc1ccnc(C(F)(F)F)c1 [Compound 155]	5
Cc1nn(-c2ccc(C(F)(F)F)cn2)nc1Oc1ccnc(C(F)(F)F)c1 [Compound 23]	0
COc1nn(-c2ccc(C(F)(F)F)cc2)nc1Cc1ccnc(C(F)(F)F)c1 [Compound 15]	5

Query compound follows.
Entry under test: Cc1nn(-c2ccc(C(F)(F)F)cn2)nc1Cc1cccc(C(F)(F)F)c1 [Compound 106] . Its Plant response rating, Wheat, Winter was 5

---

system: velvetleaf (Abutilon theophrasti); test: Test C pre-/postemergence: velvetleaf; type: in vivo; conditions: Postemergence, 125 g ai/ha; scale 0 to 100, 0 no effect, 100 complete control
assayReadout: Plant response rating, Velvetleaf
Provide a numeric answer; units are not to be included.

Entry under test: CCOc1nn(-c2ccc(Cl)cc2)nc1Cc1ccnc(C(F)(F)F)c1 . Its Plant response rating, Velvetleaf was 70

Entry under test: CCCc1nn(-c2ccc(F)cc2)nc1Oc1ccnc(C(F)(F)F)c1 . Its Plant response rating, Velvetleaf was 80

Entry under test: Cc1nn(-c2ccc(C(F)(F)F)cc2)nc1Oc1ccnc(C(F)(F)F)c1 . Its Plant response rating, Velvetleaf was 55

Entry under test: CCCc1nn(-c2ccc(C(F)(F)F)cc2)nc1Oc1ccnc(C(F)(F)F)c1 . Its Plant response rating, Velvetleaf was 85

Entry under test: FC(F)Oc1nn(-c2ccc(C(F)(F)F)cc2)nc1Cc1ccnc(C(F)(F)F)c1 . Its Plant response rating, Velvetleaf was 55

Entry under test: CCCc1nn(-c2ccc(F)cc2F)nc1Oc1ccnc(C(F)(F)F)c1 . Its Plant response rating, Velvetleaf was 75

---

Tested on: johnsongrass (Sorghum halepense)
Test: Test C pre-/postemergence: johnsongrass
Assay type: in vivo
Details: Postemergence, 62 g ai/ha; scale 0 to 100 (0 no effect, 100 complete control)
Excerpt: […] Treated plants and controls were maintained in a greenhouse for 13 to 15 days, after which time all species were compared to controls and visually evaluated. […]
assayReadout: Plant response rating, Johnsongrass
Provide a numeric answer; units are not to be included.

Take a look at these entries with their results.
smilesStr	Plant response rating, Johnsongrass
FC(F)(F)COc1nn(-c2ccc(C(F)(F)F)cc2)nc1Cc1ccnc(C(F)(F)F)c1	20
CCc1nn(-c2ccc(F)cc2)nc1Cc1ccnc(C(F)(F)F)c1	30

Query compound follows.
Entry under test: CCc1nn(-c2ccc(C(F)(F)F)c(F)c2)nc1Oc1ccnc(C(F)(F)F)c1 . Its Plant response rating, Johnsongrass was 30
